- protocolNotes: Stability assay in 25% TIDE 2X detergent with DTPA (residual Abz-AGLA-Nba protease activity)
- Assay type: physicochemical
- conditionNotes: 60 min at 32°C; variant residual AGLA activity divided by wild-type residual activity
measuredMetric: PI (relative stability), 25% TIDE 2X with DTPA

[
  {
    "molecule": "A056R: single-substitution thermolysin variant (SEQ ID NO:3 numbering) (protein, listed as Geobacillus caldoproteolyticus) ITGTSTVGVGRGVLGDQKNINTTYSTYYYLQDNTRGNGIFTYDAKYRTTLPGSLWRDADNQFFASYDAPAVDAHYYAGVTYDYYKNVHNRLSYDGNNAAIRSSVHYSQGYNNAFWNGSQMVYGDGDGQTFIPLSGGIDVVAHELTHAVTDYTAGLIYQNESGAINEAISDIFGTLVEFYANKNPDWEIGEDVYTPGISGDSLRSMSDPAKYGDPDHYSKRYTGTQDNGGVHINSGIINKAAYLISQGGTHYGVSVVGIGRDKLGKIFYRALTQYLTPTSNFSQLRAAAVQSATDLYGSTSQEVASVKQAFDAVGVK",
    "reading": 1.10
  }
]
